species: Homo sapiens; test: Inhibition of GV sPLA2 at 0.091 mole fraction
Would you mind telling me the reported inhibition of each entry?
# unit: % | format: bare number

Request: What does the record list as inhibition for CCCCCCCCCCCCCCC(=O)C(=O)NCCCC(=O)OC ?
Response: 22

Request: What does the record list as inhibition for COC(=O)CCCNC(=O)C(=O)CCCCc1ccccc1 ?
Response: 31

Request: What does the record list as inhibition for CCCCCCCCCCC(=O)C(=O)N[C@@H](CCC(=O)O)COC(=O)NCCCCCCCC ?
Response: 60

Request: What does the record list as inhibition for CCCCCCCCCCCCCC(=O)C(=O)N[C@@H](CCCC)CCCC(=O)O ?
Response: 26

Request: What does the record list as inhibition for CCCCCCCCCCCCCC(=O)C(=O)N[C@@H](CCCC)CCC(=O)O ?
Response: 30

Request: What does the record list as inhibition for CCCCCCCCCCC(=O)C(=O)N[C@@H](CCCC)CCCCC(=O)O ?
Response: 22

Request: What does the record list as inhibition for COC(=O)CCCNC(=O)C(=O)CCCc1ccccc1 ?
Response: 48

Request: What does the record list as inhibition for O=C(O)CCCNC(=O)C(=O)CCCc1ccccc1 ?
Response: 34

Request: What does the record list as inhibition for NC(=O)C(=O)CCCCc1ccccc1 ?
Response: 45

Request: What does the record list as inhibition for CCCCCCCCCCCCCCC(=O)C(=O)N[C@@H](CCCC)COC(=O)NCCCCCCCC ?
Response: 20

Request: What does the record list as inhibition for CCCCCCCCCCC(=O)C(=O)N[C@@H](CCC(=O)O)C(=O)NCC ?
Response: 30

---

Would you mind telling me the reported inhibition of each entry?
species: Homo sapiens; assay: Inhibition of GV sPLA2 at 0.091 mole fraction
Please don't drop the unit; write it after the number.

Request: What does the record list as inhibition for CCCCCCCCCCCCCCC(=O)C(=O)N[C@@H](CCC(=O)O)C(=O)NCCCCCCCCCC ?
Response: 33%

Request: What does the record list as inhibition for CCCCCCC(=O)C(=O)N[C@H](CCC(=O)O)Cc1ccccc1 ?
Response: 14%

Request: What does the record list as inhibition for CCCCCCCCCCC(=O)C(=O)N[C@@H](CCC(=O)O)C(=O)O ?
Response: 15%

Request: What does the record list as inhibition for CCCCCCCCCCCCCC(=O)C(=O)N[C@@H](CCCC)CCCCC(=O)O ?
Response: 22%

Request: What does the record list as inhibition for CCCCCCCCCCC(=O)C(=O)N[C@H](CCC(=O)O)C(=O)NCC ?
Response: 12%

Request: What does the record list as inhibition for O=C(O)CCCNC(=O)C(=O)CCCCc1ccccc1 ?
Response: 27%

Request: What does the record list as inhibition for CCCCCCCCCCC(=O)C(=O)N[C@@H](CCCC)C(=O)O ?
Response: 60%

Request: What does the record list as inhibition for CCCCCCCCCCCCCCCCNC(=O)C(=O)CC ?
Response: 30%

---

organism: Homo sapiens; test: Inhibition of human GIVA cPLA2
Hi! Could you tag entries with XI50 below 0.01 as fulfilled, and those at or above as not fulfilled? Much appreciated.

Request: Hi there! Is XI50 for CCCCCCCCCCCCCCC(=O)C(=O)N[C@@H](CCCC)CCCC(=O)O below 0.01, do you know?
Response: fulfilled

Request: Hi there! Is XI50 for CCCCCCCCCCCCCC(=O)C(=O)N[C@@H](CCCC)CCCC(=O)O below 0.01, do you know?
Response: fulfilled

Request: Hi there! Is XI50 for CCCCCCCCCCC(=O)C(=O)N[C@@H](CCCC)CCCCC(=O)O below 0.01, do you know?
Response: not fulfilled

Request: Hi there! Is XI50 for CCCCCCCCCCCCCCC(=O)C(=O)N[C@@H](CCCC)CCC(=O)O below 0.01, do you know?
Response: fulfilled

Request: Hi there! Is XI50 for CCCCCCCCCCCCCC(=O)C(=O)N[C@@H](CCCC)CCCCC(=O)O below 0.01, do you know?
Response: not fulfilled

Request: Hi there! Is XI50 for CCCCCCCC/C=C\CCCCCCCC(=O)C(=O)NCCCC(=O)OC below 0.01, do you know?
Response: not fulfilled

Request: Hi there! Is XI50 for CCCCCCCCCCCCCCC(=O)C(=O)NCCCC(=O)O below 0.01, do you know?
Response: not fulfilled

Request: Hi there! Is XI50 for CCCCCCCCCCCCCCC(=O)C(=O)N[C@@H](CCC(=O)O)C(=O)NCCCCCCCCCC below 0.01, do you know?
Response: not fulfilled

Request: Hi there! Is XI50 for CCCCCCCCCCC(=O)C(=O)N[C@@H](CCCC)CCC(=O)O below 0.01, do you know?
Response: fulfilled

Request: Hi there! Is XI50 for CCCCCCCCCCC(=O)C(=O)N[C@@H](CCC(=O)OC)COC(=O)NCCCCCCCC below 0.01, do you know?
Response: not fulfilled

Request: Hi there! Is XI50 for CCCCCCCC/C=C\CCCCCCCC(=O)C(=O)NCCCC(=O)O below 0.01, do you know?
Response: not fulfilled

Request: Hi there! Is XI50 for CCCCCCCCCCCCCC(=O)C(=O)N[C@@H](CCCC)CC(=O)O below 0.01, do you know?
Response: not fulfilled
